Molecular target: histone deacetylase (HeLa nuclear extracts)
Assay: In vitro assay for inhibition of histone deacetylase with fluorescent-labelled substrate (C.1.b)
Type: biochemical
Settings: Fluor de Lys substrate
So I've got a bunch of molecules here, and I need their Enzymatic activity pIC50 C.1.b values.
Reply with the value as a number alone.

Measured Enzymatic activity pIC50 C.1.b of O=C(NO)c1cnc(N2CCC(CNCc3cc4ccccc4s3)CC2)nc1 : 8.3

For this molecule ( Cc1[nH]c2ccccc2c1CNCC1CCN(c2ncc(C(=O)NO)cn2)CC1 ), measured Enzymatic activity pIC50 C.1.b is 8.2

Field Enzymatic activity pIC50 C.1.b (entry Cn1ccc2cc(CNCC3CCN(c4ncc(C(=O)NO)cn4)CC3)ccc21 ) reads 8.2

Record CCN(CCc1cn(C)c2cc(OC)ccc12)CC1CCN(c2ncc(C(=O)NO)cn2)CC1 . Reported Enzymatic activity pIC50 C.1.b: 7.9

The molecule CCCCn1cc(CNCC2CCN(c3ncc(C(=O)NO)cn3)CC2)c2ccccc21 showed Enzymatic activity pIC50 C.1.b equal to 8.5

Quick note, Enzymatic activity pIC50 C.1.b for Cc1ccc2[nH]cc(CNCC3CCN(c4ncc(C(=O)NO)cn4)CC3)c2c1 landed at 8.2

The recorded Enzymatic activity pIC50 C.1.b for entry COc1ccc2c(c1)c(CNCC1CCN(c3ncc(C(=O)NO)cn3)CC1)cn2C equals 10.0

Recorded result, CCC(CC)n1cc(CNCC2CCN(c3ncc(C(=O)NO)cn3)CC2)c2ccccc21 , Enzymatic activity pIC50 C.1.b: 8.5

Quick note, Enzymatic activity pIC50 C.1.b for O=C(NO)c1cnc(N2CCC(CNCc3c[nH]c4ccc(Cl)cc34)CC2)nc1 landed at 8.4

// Enzymatic activity pIC50 C.1.b value for COc1ccc2c(CCNCC3CCN(c4ncc(C(=O)NO)cn4)CC3)cn(C)c2c1 : 7.6

Measured Enzymatic activity pIC50 C.1.b, COc1ccc2[nH]cc(CNCC3CCN(c4ncc(C(=O)NO)cn4)CC3)c2c1 : 8.6

Field Enzymatic activity pIC50 C.1.b (entry CCCn1cc(CNCC2CCN(c3ncc(C(=O)NO)cn3)CC2)c2cc(F)ccc21 ) reads 10.3
